Assay: Selectivity index, ratio of CC50 for human MRC5 cells to IC50 for MexAB-OprM deleted Pseudomonas aeruginosa
Assay type: toxicity
Conditions: read-out: Ratio CC50/IC50
Measured selectivity ratio accompanies every entry in the list below.
// no unit, no text: just the number

Prompt: Fill in selectivity ratio for record CN(CC[C@H](N)CC(=O)N[C@H]1C=C[C@H](n2ccc(N)nc2=O)O[C@@H]1C(=O)O)C(=N)N.Cl
Response: 0.2

Prompt: Give the measured selectivity ratio for CN(CC[C@H](N)CC(=O)N[C@H]1C=C[C@H](n2ccc(N)nc2=O)O[C@@H]1C(=O)OCCc1ccccc1)C(=N)N
Response: 0.2

Prompt: Name the recorded selectivity ratio of the molecule listed here: C#CCCCOC(=O)[C@H]1O[C@@H](n2ccc(N)nc2=O)C=C[C@@H]1NC(=O)C[C@@H](N)CCN(C)C(=N)N
Response: 0.7

Reference source for all entries: ChEMBL document CHEMBL5252669
